- Test system: RAW264.7
- assay.name: Inhibition of NO production in mouse RAW264.7 macrophages incubated for 18 hrs by Griess reagent based assay
- Type: functional, cell-based
- assay.conditions: RAW264.7, 18 h

chemical.smiles	tested.system	IC50 (µM)
C[C@@H]1CC[C@H]2C(C(=O)O)=C[C@@H]3C[C@@](C)(C(=O)O)C[C@@]132	RAW264.7	22.7

Values from ChEMBL document CHEMBL4616661
